target: ICE (Homo sapiens, UniProt P29466); construct: The active enzyme exists as a tetramer of two p20 and two p10 subunits; assay: Inhibition of ICE: enzyme assay with UV-visible substrate (Succinyl-Tyr-Val-Ala-Asp-pNitroanilide); conditions: UV-visible substrate assay of Example 1; pH 8.1, 37° C., 80 μM substrate
Sequence (P29466 120-297 limits assumed): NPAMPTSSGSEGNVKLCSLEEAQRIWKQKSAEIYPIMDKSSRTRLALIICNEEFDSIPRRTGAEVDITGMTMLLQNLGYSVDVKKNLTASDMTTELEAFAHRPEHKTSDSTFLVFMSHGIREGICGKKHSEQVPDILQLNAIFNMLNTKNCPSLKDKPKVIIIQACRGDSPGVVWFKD
Sequence (P29466 317-404 limits assumed): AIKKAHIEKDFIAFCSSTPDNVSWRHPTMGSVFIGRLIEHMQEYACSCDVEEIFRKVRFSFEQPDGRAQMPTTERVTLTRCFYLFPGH
# note: exactly 0.03 µM is not below, so it is criterion not met; use criterion met for Ki strictly under it

Substance smiles | Experimental system | Assigned category
CC(C)[C@H](NC(=O)c1ccccc1)C(=O)N(CC(=O)N[C@@H](CC(=O)O)C(=O)c1nc2cc(F)cc(Cl)c2o1)Cc1ccccc1 | ICE (Homo sapiens, UniProt P29466) | criterion met
CC(C)[C@H](NC(=O)c1cccc2ccccc12)C(=O)N(CC(=O)N[C@H](C=O)CC(=O)O)Cc1ccccc1 | ICE (Homo sapiens, UniProt P29466) | criterion met
CC(C)[C@H](NC(=O)OCc1ccccc1)C(=O)N(CC(=O)N[C@H](C=O)CC(=O)O)C1Cc2ccccc2C1 | ICE (Homo sapiens, UniProt P29466) | criterion not met
CC(C)[C@H](NC(=O)c1ccccc1)C(=O)N(CC(=O)N[C@@H](CC(=O)O)C(=O)c1nc2cc(Cl)cc(Cl)c2o1)Cc1cccnc1 | ICE (Homo sapiens, UniProt P29466) | criterion not met
CC(C)[C@H](NC(=O)C(=O)c1ccccc1)C(=O)N(CC(=O)N[C@H](C=O)CC(=O)O)Cc1ccccc1 | ICE (Homo sapiens, UniProt P29466) | criterion not met
CC(=O)Nc1cccc(CN(CC(=O)N[C@H](C=O)CC(=O)O)C(=O)[C@@H](NC(=O)c2ccccc2)C(C)C)c1 | ICE (Homo sapiens, UniProt P29466) | criterion not met
